System: A431 cells
Assay: SRB-Antiproliferative assay (A431 assay)
Format: cell-based
Details: Homo sapiens, A-431, 72 h, read-out: A431 IC50
Experimental Readout: pIC50
Please express pIC50 as -log10 of the molar concentration.

pIC50 for COc1cc2ncnc(N[C@H](COC(C)=O)c3ccccc3)c2cc1OC [FCE 29772] ?
5.28
